Data credit: patent US20170152226A1

- System: PC3
- Experiment: Anti-proliferative activity, cell-titre luminescent viability assay
- Assay type: cell-based
- Assay context: Homo sapiens, PC-3, 72 h, 0.1, 0.3, 1, 3, 10 and 30 μM, nonlinear regression sigmoidal dose-response (EC50), read-out: IC50 Prostate PC3
- Description: The ability of compounds 3501-3540 and 3542-3545 to inhibit the proliferation of cancer cells representative of neuroblastoma, melanoma, prostate cancer, colorectal cancer, non-small cell lung carcinoma, and triple negative breast cancer was assessed. […] Luminescence was captured using an EnVision multilabel reader and the data for each analogue concentration was normalized, as a percentage, to the no treatment control. […]
Please note: IC50 exactly at 5 µM is 0. Only values below 5 µM get 1.

Look over these answered cases.
Substance smiles	Label value
Cc1c(C)n(CCCN2CCN(C)CC2)c2ccc(Cc3ccc(C(=O)N4CCN(CCc5ccc6c(c5)OCO6)CC4)cc3)cc12	0
COc1ccc2cccc(CCN3CCN(C(=O)c4ccc(Cc5ccc6c(c5)c(C)c(C)n6CCCN5CCN(C)CC5)cc4)CC3)c2c1	1
COc1cccc(CCN2CCN(C(=O)c3ccc(Oc4ccc5c(c4)c(C)c(C)n5CCCN4CCN(C)CC4)cc3)CC2)c1	1
COc1ccc2cc(CCN3CCN(C(=O)c4ccc(Cc5ccc6c(c5)c(C)c(C)n6CCCN5CCN(C)CC5)cc4)CC3)ccc2c1	1
Cc1c(C)n(CCCN2CCN(C)CC2)c2ccc(Cc3cccc(C(=O)N4CCN(CCc5ccc6ccccc6c5)CC4)c3)cc12	0

Query: IC50 strictly < 5 µM for this compound? COc1ccc2cc(CCN3CCN(C(=O)c4cccc(Cc5ccc6c(c5)c(C)c(C)n6CCCN5CCN(C)CC5)c4)CC3)ccc2c1
Reply: 1

Query: IC50 strictly < 5 µM for this compound? COc1ccc(CCN2CCN(C(=O)c3ccc(Oc4ccc5c(c4)c(C)c(C)n5CCCN4CCN(C)CC4)cc3)CC2)cc1
Reply: 0
